Biological target: GST-tagged recombinant human full-length TTK protein kinase (Homo sapiens)
Construct: GST-tagged recombinant human full-length TTK protein kinase; purchased Invitrogen (Life Technologies Ltd., Paisley, U.K.)
Sequence (P33981 whole entry): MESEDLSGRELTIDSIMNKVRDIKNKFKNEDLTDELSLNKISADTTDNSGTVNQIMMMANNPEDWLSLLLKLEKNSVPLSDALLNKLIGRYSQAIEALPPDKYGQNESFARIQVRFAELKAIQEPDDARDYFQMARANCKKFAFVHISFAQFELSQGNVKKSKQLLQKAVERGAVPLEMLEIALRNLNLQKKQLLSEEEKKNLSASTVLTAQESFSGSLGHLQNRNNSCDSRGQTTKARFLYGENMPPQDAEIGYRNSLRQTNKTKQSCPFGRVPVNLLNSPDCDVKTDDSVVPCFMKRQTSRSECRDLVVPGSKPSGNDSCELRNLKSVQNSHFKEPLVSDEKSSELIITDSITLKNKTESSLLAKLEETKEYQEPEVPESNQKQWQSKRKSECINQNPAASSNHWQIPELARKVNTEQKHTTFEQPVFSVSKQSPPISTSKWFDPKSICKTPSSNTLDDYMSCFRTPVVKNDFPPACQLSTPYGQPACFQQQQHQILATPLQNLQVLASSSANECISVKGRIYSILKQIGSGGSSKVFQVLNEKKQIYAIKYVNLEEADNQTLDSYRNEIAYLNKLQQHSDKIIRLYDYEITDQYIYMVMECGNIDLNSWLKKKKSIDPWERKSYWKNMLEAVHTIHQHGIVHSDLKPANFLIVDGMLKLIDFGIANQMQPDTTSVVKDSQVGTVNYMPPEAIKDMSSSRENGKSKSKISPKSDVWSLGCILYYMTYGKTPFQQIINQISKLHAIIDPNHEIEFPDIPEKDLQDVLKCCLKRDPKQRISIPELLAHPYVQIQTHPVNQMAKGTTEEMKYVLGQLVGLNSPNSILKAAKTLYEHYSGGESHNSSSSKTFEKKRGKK
Experiment: TTK mobility shift microfluidics assay, IC50 determination (3 nM TTK)
Type: biochemical
Settings: from TTK IC50
measurementType: LE (ligand efficiency)
Field format: numeric only.

Can you look up the measured LE (ligand efficiency) of c1cc2cnc3sccc3c2cn1 [Compound 3, Thieno[2,3-c][2,6]naphthyridine] for me?
0.45

Can you look up the measured LE (ligand efficiency) of `Cc1ccc2[nH]c3c(N4CCCCC4)ncnc3c2c1` for me?
0.25

Can you look up the measured LE (ligand efficiency) of `COc1ccc2c(c1)[nH]c1c(C)nccc12` for me?
0.32

Can you look up the measured LE (ligand efficiency) of `COc1ccc(Nc2cc(C)nc(SC)n2)cc1OC` for me?
0.32

Can you look up the measured LE (ligand efficiency) of `COc1ccc(Nc2ncnc3nc[nH]c23)cc1OC` for me?
0.30

Can you look up the measured LE (ligand efficiency) of c1cc2cnc3ccsc3c2cn1 [Compound 5, thieno[3,2-c][2,6]naphthyridine] for me?
0.44

Can you look up the measured LE (ligand efficiency) of `COc1ccc(Nc2ncnc3sc(-c4ccccc4)cc23)cc1OC` for me?
0.30

Can you look up the measured LE (ligand efficiency) of c1cc2c(cn1)cnc1sccc12 [Compound 7, thieno[2,3-c][2,7]naphthyridine] for me?
0.42

Can you look up the measured LE (ligand efficiency) of `Nc1nnc2c([nH]c3ccccc32)c1-c1ccccc1` for me?
0.29
